system: PF-1; format: biochemical, Bacillus sp. KSM-PF1; details: pH 7
Square brackets hold non-standard residues; d marks the D form. Peptide text beside a SMILES is read from it. * marks the point of attachment. Sta = CC(C)C[C@H](N)[C@@H](O)CC(=O)O; Isovaleryl = CC(C)CC(=O)*
READOUT KIND: residual activity of PF-1 relative to control as 100 (%)

molecule="O=C(O)CI [Monoiodoacetic acid, monoiodoacetic acid]" experimental_value=105
molecule="O=C(O)CN(CCN(CC(=O)O)CC(=O)O)CC(=O)O [EDTA, ethylenediaminetetraacetic acid]" experimental_value=45
molecule="O=S(=O)(F)Cc1ccccc1 [PNSF, phenylmethanesulfonylfluoride]" experimental_value=124
molecule="[Cl][Hg][Cl] [HgCl2]" experimental_value=40
molecule="[Ca+2].[Cl-].[Cl-] [CaCl2]" experimental_value=104
molecule="[Cl][Fe]([Cl])[Cl] [FeCl3]" experimental_value=98
molecule="CC(C)CC(=O)N[C@H](C(=O)N[C@H](C(=O)N[C@@H](CC(C)C)[C@@H](O)CC(=O)N[C@@H](C)C(=O)N[C@@H](CC(C)C)[C@@H](O)CC(=O)O)C(C)C)C(C)C [Pepstatin, pepstatin] (Isovaleryl-VV[Sta]A[Sta]-OH)" experimental_value=108
molecule="[Cl-].[Cl-].[Zn+2] [ZnCl2]" experimental_value=88
molecule="[Cl-].[Cl-].[Mg+2] [MgCl2]" experimental_value=107
molecule="[Cl][Ni][Cl] [NiCl2]" experimental_value=92
molecule="O[C@H](CS)[C@H](O)CS (racemic) [DTT, dithiothreitol]" experimental_value=70
molecule="[Cl-].[Cl-].[Co+2] [CoCl2]" experimental_value=103
molecule="[Cl][Mn][Cl] [MnCl2]" experimental_value=103
molecule="[Cl][Cu][Cl] [CuCl2]" experimental_value=37

The reported numbers originate from patent US5709901A.
